Source listed as the supplement of paper PMC8728848.

Listed next: entries and their corresponding glycan array binding signal (z-score).
# System: Fuc(a1-2)Gal(b1-3)GalNAc(b1-3)Gal(a1-4)Gal(b1-4)Glc
# Method Notes: glycan array binding signal (z-score within array); higher = stronger binding
# Condition Summary: glycan notation: IUPAC condensed, linker removed
This is one part of a sample in which the strongest signals are shown more often than they occur.
Outcome Measure: glycan array binding signal (z-score)

[[record]]
binder = "AT5G24760(45) (Arabidopsis thaliana), Q8LEB2 (protein) MSASSSSFEQPQVITCNAAVAWRAGEPLVMEEVEVSPPQPLEIRIKVVCTSLCRSDLSAWESQSLLPRIFGHEAAGIVESIGEGVTEFEKGDHVLAVFTGECGSCRHCISGKSNMCQVLGMERKGLMHSDQKTRFSIKGKPVYHYCAVSSFSEYTVVHSGCAVKVDPLAPLHKICLLSCGVAAGLGAAWNVADVQKGSSVVIFGLGTVGLSVAQGAKLRGAAQILGVDINPAKAEQAKTFGVTDFINSNDLSEPIPQVIKRMTGGGADFSFECVGDTGIATTALQSCSDGWGMTVTLGVPKAKPEVSAHYGLFLSGKSLKGTLFGGWKPKSDLPSLIDKYMNKEIMIDEFITHNLSFDEINKAFVLMREGKCLRCVLHMPK"
observed_value = -0.051

[[record]]
binder = "TbCVNHOb (Tuber borchii) (protein) GSHIGPYMSFYASSEDVRTIEEGGRTWLVGRARRADGSWQDIKLDLDNIIGNRDGHLTWGEQNFTQSASDIRFNFEGGSNVPVLRAKLRNAAGGEQESDLNLGERLTNNNGDLVFN"
observed_value = 2.01

